- Test system: HeLa cells
- PROCEDURE_DETAILS: […]-GLO cell viability, single drugs (Example 1)
- Type: cell-based
- CONDITION_INFO: Homo sapiens, 72 h, drug alone
pIC50: −log10 of the molar value.
REPORTED_PROPERTY: pIC50

Item C[C@H]1[C@H](OC(=O)CCC(=O)O)O[C@@H]2O[C@@]3(C)CC[C@H]4[C@H](C)CC[C@@H]1[C@@]24OO3 [artesunate] with HeLa cells - pIC50?
~5.30

###

- Tested on: SiHa cells
- PROCEDURE_DETAILS: […]-GLO cell viability, single drugs (Example 1)
- Format: cell-based
- CONDITION_INFO: Homo sapiens, 72 h, read-out: IC50 Confidence Interval
REPORTED_PROPERTY: IC50

Consider the compound C[C@H]1[C@H](OC(=O)CCC(=O)O)O[C@@H]2O[C@@]3(C)CC[C@H]4[C@H](C)CC[C@@H]1[C@@]24OO3 [artesunate] and give its measured IC50.
6.8 to 9.43 µM
